The measurements presented in this section are drawn from the supplement of paper PMC10567573.

B1: SEC22B (parent)
chain: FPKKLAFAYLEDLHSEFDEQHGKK

- Variants of: B1
- assayProcedure: protein stability index of a GFP-peptide fusion (GPS, HEK-293T) (PSI 1-6); higher = more stable;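 note: lentivirally expressed fusions sorted by FACS into six bins by GFP to DsRed ratio, PSI derived from sequencing read proportions per bin multiplied by bin number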
- testContext: c terminus: a fixed tail appended
experimentalEndpoint: protein stability index

> print(dat)
   mutantname     experimentalendpoint  measurednumber
1        F17M  protein stability index            2.45
2        K24M  protein stability index            2.36
3         A6R  protein stability index            2.28
4        H14D  protein stability index            2.53
5         A6Y  protein stability index            1.66
6         L5S  protein stability index            2.64
